Target: T1, ADAR1-Zα (UniProt P55265 134-198)
T1 sequence: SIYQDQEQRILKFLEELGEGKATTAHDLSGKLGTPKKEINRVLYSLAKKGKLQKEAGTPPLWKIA
Experiment: SPR
measurement_type: pKd
Numbers only, as −log10 of the molar value.

binder: A10 (ssDNA) DNA: TTCAGCACTCCACGCATAGCACACGACCGAACTCGCCAACCCTGTCGTCCCGCCCGCCTATGCGTGCTACCGTGAA
pKd: 7.00

binder: A8 (ssDNA) DNA: TTCAGCACTCCACGCATAGCCCGCCACCACCAATCCTCACACTAGTCCGGCCCGGTCCTATGCGTGCTACCGTGAA
pKd: 7.00

Kindly consider the entry below.
Entry A1 (ssDNA) DNA: TTCAGCACTCCACGCATAGCCGGACGCGCCCCTCTTCCTTGTGTGCTCTCGCCCGCCCTATGCGTGCTACCGTGAA ; pKd = 7.50
